MIC for assorted compounds
test system: S. aureus; experiment: pH-dependent MIC determination; format: cell-based; details: Staphylococcus aureus; S. aureus ATCC 700699 (VISA), pH 5.5
Value expressed in µg/mL; do not type the unit.

* CN[C@H](CC(C)C)C(=O)N[C@H]1C(=O)N[C@@H](CC(N)=O)C(=O)N[C@H]2C(=O)N[C@H]3C(=O)N[C@H](C(=O)N[C@H](C(=O)O)c4cc(O)cc(O)c4-c4cc3ccc4O)[C@H](O)c3ccc(c(Cl)c3)Oc3cc2cc(c3O[C@@H]2O[C@H](CO)[C@@H](O)[C@H](O)[C@H]2O[C@H]2C[C@](C)(N)[C@H](O)[C@H](C)O2)Oc2ccc(cc2Cl)[C@H]1O [Vancomycin] | 8
* Nc1nc(-n2cc(C(=O)O)c(=O)c3cc(F)c(N4CC(O)C4)c(Cl)c32)c(F)cc1F [Delafloxacin] | 0.032
* Cc1[nH]c(C(=O)Nc2nc3ccc(C(=O)O)cc3s2)c(Cl)c1Cl [ULD1] | 0.00025

Here is another compound to look at.
Req: Report MIC for Cc1[nH]c(C(=O)Nc2nc3c(OCc4ccccc4)cc(C(=O)O)cc3s2)c(Cl)c1Cl [ULD2] please.
Resp: 0.0005

====

Each item that follows carries a reported MIC.
test system: S. aureus clinical isolates; assay: microbe, parasite or virus in culture; format: cell-based; settings: Staphylococcus aureus, MRSA / NRS 3 / VISA, S. aureus IHMA 1308243, NRS3, MRSA / VISA; read-out: MIC
Express your answer in µg/mL, writing the number without its unit.

Examples from the recorded data:
• Cc1[nH]c(C(=O)Nc2nc3c(OCc4ccccc4)cc(C(=O)O)cc3s2)c(Cl)c1Cl [ULD2] = 0.5
• C[C@H]1COc2c(N3CCN(C)CC3)c(F)cc3c(=O)c(C(=O)O)cn1c23 [Levofloxacin] = 32

# context switch: different compound, same MIC
Req: What MIC value was documented for this compound, CC(=O)NC[C@H]1CN(c2ccc(N3CCOCC3)c(F)c2)C(=O)O1 [Linezolid] ?
Resp: 1
